# Test system: rodent lifetime carcinogenesis bioassay, tumor incidence TD50
# assay.method.text: carcinogenic potency in animals, long-term in vivo studies, CPDB compilation (AID 1745844)
# measurement.parameters: rat; strain Sprague-Dawley; females; by gavage; site: forestomach; lesion: several types; types named in the paper; dosed 52 weeks; study length 156 weeks
value.kind: TD50

c1ccc(C2CO2)cc1 (stereo unspecified) yielded TD50 of 96.5 mg/kg/day

* * *

# Test system: rodent lifetime carcinogenesis bioassay, tumor incidence TD50
# assay.method.text: carcinogenic potency in animals, long-term in vivo studies, CPDB compilation (AID 1745844)
# measurement.parameters: mouse; strain B6C3F1; males; i.p.; site: lung; lesion: alveolar/bronchiolar adenoma + alveolar/bronchiolar carcinoma; dosed 52 weeks; study length 85 weeks
value.kind: TD50 (mg/kg/day)
Please give a number only; it is taken to be in mg/kg/day.

Per the reported rodent lifetime carcinogenesis bioassay, tumor incidence TD50 data, CNNCc1ccc(C(=O)NC(C)C)cc1 has TD50 of 0.623

* * *

# Tested on: rodent lifetime carcinogenesis bioassay, tumor incidence TD50
# assay.method.text: carcinogenic potency in animals, long-term in vivo studies, CPDB compilation (AID 1745844)
# measurement.parameters: mouse; strain B6C3F1; females; in feed; site: liver; lesion: hepatocellular carcinoma; dosed 97 weeks; study length 97 weeks
value.kind: TD50

COc1ccc(C)cc1N yielded TD50 of 315 mg/kg/day

* * *

# Tested on: rodent lifetime carcinogenesis bioassay, tumor incidence TD50
# assay.method.text: carcinogenic potency in animals, long-term in vivo studies, CPDB compilation (AID 1745844)
# measurement.parameters: rat; strain Fischer 344; females; by gavage; site: any site (literature study); lesion: several types; types named in the paper; dosed 106 weeks; study length 108 weeks
value.kind: TD50 (mg/kg/day)
Please give a number only; it is taken to be in mg/kg/day.

Cc1ccc(N=C=O)cc1N=C=O yielded TD50 of 25.1

* * *

# System: rodent lifetime carcinogenesis bioassay, tumor incidence TD50
# assay.method.text: carcinogenic potency in animals, long-term in vivo studies, CPDB compilation (AID 1745844)
# measurement.parameters: rat; strain Fischer 344; females; in drinking water; site: uterus; lesion: endometrial stromal polyp; dosed 98 weeks; study length 104 weeks
value.kind: TD50 (mg/kg/day)
Please give a number only; it is taken to be in mg/kg/day.

Cc1ccc(S(=O)(=O)Oc2ccc(N=Nc3ccc(-c4ccc(N=Nc5c(O)ccc6cc(S(=O)(=O)O)cc(S(=O)(=O)O)c56)c(C)c4)cc3C)cc2)cc1 yielded TD50 of 20.1

* * *

# Tested on: rodent lifetime carcinogenesis bioassay, tumor incidence TD50
# assay.method.text: carcinogenic potency in animals, long-term in vivo studies, CPDB compilation (AID 1745844)
# measurement.parameters: rat; strain Fischer 344; females; in drinking water; site: liver; lesion: several types; types named in the paper; dosed 50 weeks; study length 120 weeks
value.kind: TD50

O=NC(=O)CCNCCO yielded TD50 of 1.8 mg/kg/day

* * *

# Tested on: rodent lifetime carcinogenesis bioassay, tumor incidence TD50
# assay.method.text: carcinogenic potency in animals, long-term in vivo studies, CPDB compilation (AID 1745844)
# measurement.parameters: rat; strain Fischer 344; males; in feed; site: skin; lesion: basal-cell adenoma + keratoacanthoma + squamous-cell carcinoma + squamous-cell papilloma + trichoepithelioma; dosed 12 weeks; study length 103 weeks
value.kind: TD50 (mg/kg/day)
Please give a number only; it is taken to be in mg/kg/day.

Per the reported rodent lifetime carcinogenesis bioassay, tumor incidence TD50 data, OCC(CO)(CBr)CBr has TD50 of 16.9

* * *

# Tested on: rodent lifetime carcinogenesis bioassay, tumor incidence TD50
# assay.method.text: carcinogenic potency in animals, long-term in vivo studies, CPDB compilation (AID 1745844)
# measurement.parameters: rat; strain Charles River CD (Sprague-Dawley); females; by gavage; site: liver; lesion: hepatocellular adenoma; dosed 105 weeks; study length 105 weeks
Active and inactive are the calls of the source. No rule for the calls is given here.
value.kind: TD50

Per the reported rodent lifetime carcinogenesis bioassay, tumor incidence TD50 data, CC[C@H](C)C(=O)O[C@H]1C[C@@H](C)C=C2C=C[C@H](C)[C@H](CC[C@@H]3C[C@@H](O)CC(=O)O3)[C@H]21 has TD50 of 19900 mg/kg/day (inactive)

* * *

# Tested on: rodent lifetime carcinogenesis bioassay, tumor incidence TD50
# assay.method.text: carcinogenic potency in animals, long-term in vivo studies, CPDB compilation (AID 1745844)
# measurement.parameters: mouse; strain B6C3F1; males; inhaled; site: Harderian gland + lung; lesion: papillary cystadenoma, NOS + alveolar/bronchiolar adenoma + alveolar/bronchiolar carcinoma; dosed 102 weeks; study length 104 weeks
value.kind: TD50 (mg/kg/day)
Please give a number only; it is taken to be in mg/kg/day.

C1CO1 yielded TD50 of 51.2

* * *

Task for the reader: assign each of the following molecules its reported TD50.
# Tested on: rodent lifetime carcinogenesis bioassay, tumor incidence TD50
# assay.method.text: carcinogenic potency in animals, long-term in vivo studies, CPDB compilation (AID 1745844)
# measurement.parameters: rat; strain F344/DuCrj; males; in feed; site: forestomach; lesion: squamous-cell papilloma; dosed 60 weeks; study length 60 weeks

O=C(O)C=Cc1ccc(O)c(O)c1 yielded TD50 of 542 mg/kg/day

Oc1ccc2c(c1)OCO2 yielded TD50 of 909 mg/kg/day

* * *

# Test system: rodent lifetime carcinogenesis bioassay, tumor incidence TD50
# assay.method.text: carcinogenic potency in animals, long-term in vivo studies, CPDB compilation (AID 1745844)
# measurement.parameters: mouse; strain B6C3F1; females; oral dosing; site: lung; lesion: adenoma; dosed 79 weeks; study length 79 weeks
Task for the reader: assign each of the following compounds its reported TD50.

OCCN(CCO)C(=S)S yielded TD50 of 1080 mg/kg/day

C=C1C(C)(C)[C@@]2(Cl)C(Cl)[C@]1(Cl)C(Cl)(Cl)C2(Cl)Cl (some centres not stated) yielded TD50 of 10.7 mg/kg/day

* * *

# System: rodent lifetime carcinogenesis bioassay, tumor incidence TD50
# assay.method.text: carcinogenic potency in animals, long-term in vivo studies, CPDB compilation (AID 1745844)
# measurement.parameters: rat; strain ACI; females; in feed; site: adrenal gland; lesion: pheochromocytoma; dosed 121 weeks; study length 121 weeks
Calls of active or inactive are those of the source. No rule for the calls is given here.
value.kind: TD50

C[C@@H]1O[C@@H](OC[C@H]2O[C@@H](Oc3c(-c4ccc(O)c(O)c4)oc4cc(O)cc(O)c4c3=O)[C@H](O)[C@@H](O)[C@@H]2O)[C@H](O)[C@H](O)[C@H]1O yielded TD50 of 90400 mg/kg/day (inactive)

* * *

# Tested on: rodent lifetime carcinogenesis bioassay, tumor incidence TD50
# assay.method.text: carcinogenic potency in animals, long-term in vivo studies, CPDB compilation (AID 1745844)
# measurement.parameters: mouse; strain B6C3F1; males; in feed; site: lung; lesion: alveolar/bronchiolar adenoma + alveolar/bronchiolar carcinoma; dosed 80 weeks; study length 105 weeks
value.kind: TD50

Nc1ccc(N=Nc2ccccc2)c(N)n1 yielded TD50 of 1300 mg/kg/day

* * *

# Tested on: rodent lifetime carcinogenesis bioassay, tumor incidence TD50
# assay.method.text: carcinogenic potency in animals, long-term in vivo studies, CPDB compilation (AID 1745844)
# measurement.parameters: rat; strain Fischer 344; males; in feed; site: subcutaneous tissue; lesion: fibrosarcoma + fibroma + sarcoma; dosed 104 weeks; study length 105 weeks
value.kind: TD50

OCC(CO)(CBr)CBr yielded TD50 of 221 mg/kg/day

* * *

# Tested on: rodent lifetime carcinogenesis bioassay, tumor incidence TD50
# assay.method.text: carcinogenic potency in animals, long-term in vivo studies, CPDB compilation (AID 1745844)
# measurement.parameters: rat; strain Fischer 344; females; by gavage; site: cervix; lesion: adenocarcinoma; dosed 37 weeks; study length 102 weeks
value.kind: TD50 (mg/kg/day)
Please give a number only; it is taken to be in mg/kg/day.

CCNC(=O)N(C=O)CCN(C)C yielded TD50 of 5.35

* * *

# Test system: rodent lifetime carcinogenesis bioassay, tumor incidence TD50
# assay.method.text: carcinogenic potency in animals, long-term in vivo studies, CPDB compilation (AID 1745844)
# measurement.parameters: mouse; strain B6C3F1; males; inhaled; site: lung; lesion: alveolar/bronchiolar adenoma + alveolar/bronchiolar carcinoma; dosed 104 weeks; study length 105 weeks
value.kind: TD50 (mg/kg/day)
Please give a number only; it is taken to be in mg/kg/day.

CCBr yielded TD50 of 1100

* * *

# System: rodent lifetime carcinogenesis bioassay, tumor incidence TD50
# assay.method.text: carcinogenic potency in animals, long-term in vivo studies, CPDB compilation (AID 1745844)
# measurement.parameters: mouse; strain B6C3F1; females; in feed; site: liver; lesion: hepatocellular adenoma; dosed 100 weeks; study length 100 weeks
value.kind: TD50 (mg/kg/day)
Please give a number only; it is taken to be in mg/kg/day.

Cn1cnc([N+](=O)[O-])c1Sc1ncnc2nc[nH]c12 yielded TD50 of 67.5
